Target: NAMPT (Homo sapiens)
Construct: purchased Abcam ab221819
Sequence (P43490 whole entry): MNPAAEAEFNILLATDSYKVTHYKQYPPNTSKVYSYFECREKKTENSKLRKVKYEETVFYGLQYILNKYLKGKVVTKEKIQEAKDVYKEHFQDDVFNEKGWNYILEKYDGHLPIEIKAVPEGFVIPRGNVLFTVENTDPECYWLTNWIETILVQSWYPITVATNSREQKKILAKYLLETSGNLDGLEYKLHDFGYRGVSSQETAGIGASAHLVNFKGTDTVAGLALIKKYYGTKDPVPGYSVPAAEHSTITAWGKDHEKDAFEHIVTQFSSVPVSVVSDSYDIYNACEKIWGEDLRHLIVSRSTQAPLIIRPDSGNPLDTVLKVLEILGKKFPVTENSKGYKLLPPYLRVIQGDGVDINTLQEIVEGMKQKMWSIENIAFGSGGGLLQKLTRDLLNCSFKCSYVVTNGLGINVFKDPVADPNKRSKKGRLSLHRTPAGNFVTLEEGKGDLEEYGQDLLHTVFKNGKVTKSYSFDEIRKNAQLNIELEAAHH
Test: NAMPT Activity Assay (Abcam #ab221819)
Type: biochemical
Settings: purified NAMPT, percent inhibition from OD450 nm; compound concentration not given
measuredMetric: NAMPT Inhibition Code*

CC(=O)N(CC1CC1)c1ccc(-c2ccc(C(=O)NCCCc3cn[nH]c3)cn2)cc1Cl    C (C = ≥66% inhibition)
CC(=O)N(CC1CC1)c1ccc(-c2ccc(C(=O)NCc3cccc(F)c3)cn2)cc1Cl    C (C = ≥66% inhibition)
CC(=O)N(CC(F)F)c1ccc(-c2ccc(C(=O)NCc3ccccc3)cn2)cc1Cl    A (*A = <33% inhibition)
CC(=O)N(CC1CC1)c1ccc(-c2ccc(C(=O)NCc3cnccn3)cn2)cc1Cl    A (*A = <33% inhibition)
COC(=O)c1cc(-c2ccc(C(=O)Nc3cnc4nccn4c3)cn2)ccc1N(CC1CC1)C(C)=O    C (C = ≥66% inhibition)

Go through the list and state NAMPT Inhibition Code* for each entry.
1. CC(=O)N(CC1CC1)c1ccc(-c2ccc(C(=O)NCCCc3cnn(C)c3)cn2)cc1Cl
2. CC(=O)N(CC1CC1)c1ccc(-c2ccc(C(=O)NCCc3cccnc3)cn2)cc1C#N
3. CC(=O)N(CC1CC1)c1ccc(-c2ccc(C(=O)NCCCc3cc[nH]n3)cn2)cc1Cl
4. CC(=O)N(CC1CC1)c1ccc(-c2ccc(NC(=O)Cc3cccnc3)cn2)cc1Cl
5. CCOc1ccc(CNC(=O)c2ccc(-c3ccc(N(CC4CC4)C(C)=O)c(Cl)c3)nc2)cn1

result:
A (*A = <33% inhibition)
C (C = ≥66% inhibition)
C (C = ≥66% inhibition)
C (C = ≥66% inhibition)
A (*A = <33% inhibition)

Provide NAMPT Inhibition Code* values for the following items, in order.
1. CC(=O)N(CC(F)F)c1ccc(-c2ccc(NC(=O)Cc3cccnc3)cn2)cc1Cl
2. CC(=O)N(CC1CC1)c1ccc(-c2ccc(C(=O)NCc3cc[nH]n3)cn2)cc1Cl
3. CC(=O)N(CC1CC1)c1ccc(-c2ccc(C(=O)NCCc3ccsc3)cn2)cc1Cl
4. CC(=O)N(CC1CC1)c1ccc(-c2ccc(C(=O)NCCCc3cn[nH]c3)cn2)cc1C#N

result:
["C (C = ≥66% inhibition)", "A (*A = <33% inhibition)", "C (C = ≥66% inhibition)", "C (C = ≥66% inhibition)"]
